Source listed as PubChem BioAssay (NCATS).

Test: BET inhibitor-based combinations targeting novel dependencies in MECOM-rearranged (r) AML: UCSD-AML1 cell line (AID 2202235); further: nearly all actives have a fitted effect of over 40% in size
Settings: UCSD-AML1 AML cells viability, CellTiter-Glo, 48 h; series mostly up to 46 µM
Results filed as inconclusive are left out. The source made the active and inactive calls. The call rests on the fitted dose curve; in most records, active means well fitted inhibition curve with a large enough effect; inconclusive means small, poorly fitted or top-dose-only effect; inactive means no such curve, though single readings can be large or run the other way.
Choose the fitting class; nothing outside active, inactive is accepted.

Below are worked cases with known answers.
| Compound | Cat |
| --- | --- |
| COc1ccc(CNC(=O)c2cc(-c3cncc(Cl)c3)cnc2-c2ccccn2)nc1OC | inactive |
| N#Cc1c(N)nc(N)nc1N[C@H](c1nc2c(F)ccc(Cl)c2c(=O)n1-c1cccnc1)C1CC1 | active |
| CCC1CCCCN1C(=O)n1ncc(C(O)(c2ccccc2)c2ccccc2)n1 (stereo not drawn) | active |

Check the results log: what was the call for `CN(C)c1ccc(O)c2c1C[C@H]1C[C@H]3[C@H](N(C)C)C(=O)C(C(N)=O)=C(O)[C@@]3(O)C(=O)C1=C2O` ?
inactive

Check the results log: what was the call for CC[C@]12C=CCN3CC[C@@]4(c5cc([C@@]6(C(=O)OC)CC7C[C@@H](C(C)(F)F)CN(Cc8c6[nH]c6ccccc86)C7)c(OC)cc5N(C)[C@H]4[C@@](O)(C(=O)OC)[C@@H]1OC(C)=O)[C@@H]32 (stereo partly drawn) ?
active

Check the results log: what was the call for `COc1cc(OCc2cccc(-c3ccccc3)c2C)cc(OC)c1CN1CCCC[C@H]1C(=O)O` ?
inactive

Check the results log: what was the call for `COc1nc(OCc2cccc(-c3ccccc3)c2C)ccc1CNCCNC(C)=O` ?
active

Check the results log: what was the call for `CC(=O)O/N=C1\C(=O)N(Cc2cc(Cl)ccc2Cl)c2ccc(Cl)cc21` ?
active

* * *

Assay: BET inhibitor-based combinations targeting novel dependencies in MECOM-rearranged (r) AML: HNT-34 cell line (AID 2202234); further: nearly all actives have a fitted effect of over 35% in size
Details: HNT-34 AML viability, CellTiter-Glo luminescence, 48 h; series mostly up to 46 µM
Inconclusive results are not listed. Calls of active or inactive are those of the source. Calls come from the whole dose curve; as a rule, active = well fitted inhibition curve with a large enough effect; inconclusive = small, poorly fitted or top-dose-only effect; inactive = no such curve, though single readings can be large or run the other way.
Choose the fitting class; nothing outside active, inactive is accepted.

Below are worked cases with known answers.
| Smiles String | Cat |
| --- | --- |
| O=S(=O)(c1cccc2cnccc12)N1CCCNCC1 | inactive |
| Cc1c(F)cccc1NC(=O)Nc1ccc(Cl)c(S(=O)(=O)[C@H]2CCCNC2)c1O | inactive |
| CCC(=O)Nc1cccc(Oc2nc(Nc3ccc(N4CCN(C)CC4)cc3OC)ncc2Cl)c1 | active |
| CC(=O)O/N=C1/C(c2c(O)[nH]c3cc(Br)ccc23)=Nc2ccccc21 | active |

In the following, a different molecule is considered.
Check the results log: what was the call for `C=CC(=O)N1CCC(Oc2cc3c(Nc4ccc(Cl)c(Cl)c4F)ncnc3cc2OC)CC1` ?
active

* * *

Target: Retinal dehydrogenase 2 (Homo sapiens)
Assay: qHTS for Inhibitors of the Aldehyde Dehydrogenase Family (ALDH1A2) Confirmation screens (AID 2061314); further: nearly all actives have a fitted effect of over 65% in size
Conditions: ALDH1A2 enzyme inhibition qHTS confirmation; series mostly up to 45.9 µM
Records with an inconclusive call do not appear. The source made the active and inactive calls. Calls follow the shape of the dose curve; as a rule, active = well fitted inhibition curve with a large enough effect; inconclusive = small, poorly fitted or top-dose-only effect; inactive = no such curve, though single readings can be large or run the other way.
Choose the fitting class; nothing outside yes = active, no = inactive is accepted.

Below are worked cases with known answers.
| Molecule | Cat |
| --- | --- |
| CCOc1ccc(-c2cc(C(=O)NC(C)c3ccccc3)c3ccccc3n2)cc1 (stereo unspecified) | no |
| C=CCNc1nnc(-c2cccc3ccccc23)o1 | yes |
| O=C(Nc1cccc(Cc2ccccc2)n1)c1ccc(-c2cccc([N+](=O)[O-])c2)o1 | yes |
| COc1ccc(NC(=O)c2cc(S(=O)(=O)N3CCOCC3)ccc2OC)cc1 | no |
| COc1ccc(-n2c(C)c(C(C)=O)c3ccccc32)cc1 | no |
| C=C1CN(Cc2ccc(C(=O)Nc3ccccc3N)cc2)C(=O)c2ccccc21 | no |
| O=c1cc2nc(-c3ccccc3)nc(SCc3cccc(Br)c3)n2[nH]1 | no |
| O=C(NCCc1nc2ccccc2n1CCCc1ccccc1)C1CCCCC1 | no |

Check the results log: what was the call for `CCOc1ccc(CCNC(=O)c2cc3c(s2)CCC3)cc1OCC` ?
yes

Check the results log: what was the call for `Cc1ccc(-c2ccc(=O)n(CC(=O)NCCc3ccccc3)n2)cc1` ?
yes

Check the results log: what was the call for Cc1ccc(S(=O)(=O)N2CCCC(Cn3cnc4cccnc43)C2)cc1C (stereo unspecified) ?
no
